Quick reference: viability, T/C of the listed items.
System: NCI-H226 complex tumor spheroids, viability
test: Anticancer human tumor NCI-H226 cell line growth inhibition;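 note: spheroids exposed to compound for 7 days; 100% = DMSO vehicle control viability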
condition.info: second compound 1 µM; first compound 10 µM; hits give low values
The figure you give is taken to be in %; do not add the unit.

Some solved cases for reference:
CC(C)n1c(=O)n(C)c2cnc3cc(F)c(-c4ccc(OCCCN5CCCCC5)nc4)cc3c21 + Cn1nnc2c(C(N)=O)ncn2c1=O
4.4
Cc1cc(C)c(CNC(=O)c2cc(-c3ccc(CN4CCOCC4)cc3)cc3c2cnn3C2CCCC2)c(=O)[nH]1 + Cn1nnc2c(C(N)=O)ncn2c1=O
102
CC1COCCN1c1cc(-c2ccnn2C)c2ccnc(-c3ccn[nH]3)c2n1 (stereo unspecified) + Cn1nnc2c(C(N)=O)ncn2c1=O
35.9
[2H]c1nc(C)nc([2H])c1-c1cc(NC[C@@H](C)c2cccc3c(C(=O)NC)ccnc23)ncn1 + Cn1nnc2c(C(N)=O)ncn2c1=O
121
COc1cc(C)[nH]c(=O)c1CN1CCc2c(Cl)cc(C(OC)C3COC3)c(Cl)c2C1=O (stereo unspecified) + Cn1nnc2c(C(N)=O)ncn2c1=O
132

Proceeding to the next compound to report its viability, T/C.
Provide one value: measured viability, T/C of COc1ccc([C@@H](O)c2cc(-c3ncnc4cc(N5CCOCC5)ccc34)c(F)cc2Cl)nn1 + Cn1nnc2c(C(N)=O)ncn2c1=O
37.5
